target: PDC-5 (Pseudomonas aeruginosa, UniProt P24735, R79Q/T105A); construct: made in house; host or cells: E. coli TOP10, plasmid pUCp24; test: biochemical; set-up: species or system P. aeruginosa
Sequence (P24735 27-397 R79Q/T105A): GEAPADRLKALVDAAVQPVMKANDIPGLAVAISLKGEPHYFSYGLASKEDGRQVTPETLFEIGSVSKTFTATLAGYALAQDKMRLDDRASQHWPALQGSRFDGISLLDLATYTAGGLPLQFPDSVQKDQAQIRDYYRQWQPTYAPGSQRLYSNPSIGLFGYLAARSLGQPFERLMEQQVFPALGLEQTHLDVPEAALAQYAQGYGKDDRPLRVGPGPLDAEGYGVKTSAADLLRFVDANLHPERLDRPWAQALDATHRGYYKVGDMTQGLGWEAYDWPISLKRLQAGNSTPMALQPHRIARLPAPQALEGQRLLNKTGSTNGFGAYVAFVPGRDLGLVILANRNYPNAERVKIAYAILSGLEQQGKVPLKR
pIC50: −log10 of the molar value.

input.smiles: O=C(O)[C@H]1/C(=C/CO)O[C@@H]2CC(=O)N21
modifier.sign: <
pIC50: 4.00

input.smiles: O=C(O)c1c(F)ccc2c1OB(O)[C@@H]1C[C@H]21
modifier.sign: =
pIC50: 6.18

input.smiles: O=C(O)C[C@@H]1CC[C@H](NC(=O)Cc2cccs2)B(O)O1
modifier.sign: =
pIC50: 4.43

input.smiles: NCCONC(=O)[C@@H]1CC[C@@H]2CN1C(=O)N2OS(=O)(=O)O
modifier.sign: =
pIC50: 5.92

input.smiles: CC1=C[C@@H]2CN(C(=O)N2OS(=O)(=O)O)[C@@H]1C(N)=O
modifier.sign: =
pIC50: 7.89

###

target: UniProtKB Q20I87; assay: IC50 of β-lactamase inhibitors, crude extract, YRC-1; assay type: biochemical; settings: YRC-1; crude extract of E. coli TOP10 recombinant strain; mean of triplicate; read-out: IC50
Sequence (Q20I87 entry or part of it): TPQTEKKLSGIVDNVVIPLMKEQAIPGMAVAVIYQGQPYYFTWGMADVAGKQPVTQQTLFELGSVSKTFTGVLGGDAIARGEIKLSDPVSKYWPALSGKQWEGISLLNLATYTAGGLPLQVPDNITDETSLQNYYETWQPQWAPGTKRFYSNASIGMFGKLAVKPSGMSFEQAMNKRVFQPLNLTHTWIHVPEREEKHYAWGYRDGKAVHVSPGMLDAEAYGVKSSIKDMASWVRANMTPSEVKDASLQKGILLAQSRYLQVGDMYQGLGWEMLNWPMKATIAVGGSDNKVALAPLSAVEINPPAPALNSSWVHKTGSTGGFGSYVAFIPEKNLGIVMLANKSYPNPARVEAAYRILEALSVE
pIC50: −log10 of the molar value.

input.smiles: NCCN[C@H]1CC[C@H](CC(=O)N[C@H]2Cc3cccc(C(=O)O)c3OB2O)CC1
subject.of.test: UniProtKB Q20I87
modifier.sign: =
pIC50: 7.00
//
input.smiles: Cn1cc[n+](C[C@@]2(C)[C@H](C(=O)[O-])N3C(=O)C[C@H]3S2(=O)=O)n1
subject.of.test: UniProtKB Q20I87
modifier.sign: <
pIC50: 4.00

###

molecular target: PDC-5 (Pseudomonas aeruginosa, UniProt P24735, R79Q/T105A); construct: made in house; host or cells: E. coli TOP10, plasmid pUCp24; assay: biochemical; parameters: species or system P. aeruginosa; settings: PDC-5; crude extract of E. coli TOP10 recombinant strain; mean of triplicate; read-out: IC50
measured.quantity: IC50

compound: NCCN[C@H]1CC[C@H](CC(=O)N[C@H]2Cc3cccc(C(=O)O)c3OB2O)CC1 [Taniborbactam, taniborbactam]
measured.quantity: IC50
value.reported: 510 nM

compound: Cn1cc[n+](C[C@@]2(C)[C@H](C(=O)[O-])N3C(=O)C[C@H]3S2(=O)=O)n1 [Enmetazobactam, enmetazobactam]
measured.quantity: IC50
value.reported: > 100000 nM

###

molecular target: UniProt:Q48443; assay: biochemical; details: LAT-1; crude extract of E. coli TOP10 recombinant strain; mean of triplicate; read-out: IC50
Sequence (Q48443 entry or part of it): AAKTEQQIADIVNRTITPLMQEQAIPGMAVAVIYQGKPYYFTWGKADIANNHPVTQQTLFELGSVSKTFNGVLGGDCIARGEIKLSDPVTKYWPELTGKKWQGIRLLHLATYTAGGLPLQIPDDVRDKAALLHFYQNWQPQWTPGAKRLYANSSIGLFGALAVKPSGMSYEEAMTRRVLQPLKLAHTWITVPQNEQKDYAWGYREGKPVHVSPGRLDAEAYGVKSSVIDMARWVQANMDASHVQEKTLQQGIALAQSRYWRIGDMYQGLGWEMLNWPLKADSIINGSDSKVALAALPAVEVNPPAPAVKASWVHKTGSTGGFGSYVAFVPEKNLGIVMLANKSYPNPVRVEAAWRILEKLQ
pIC50: −log10 of the molar value.
Recorded pIC50, one value per entry.
measured.quantity: pIC50

input.smiles: NCCN[C@H]1CC[C@H](CC(=O)N[C@H]2Cc3cccc(C(=O)O)c3OB2O)CC1
value.reported: 6.64
--
input.smiles: Cn1cc[n+](C[C@@]2(C)[C@H](C(=O)[O-])N3C(=O)C[C@H]3S2(=O)=O)n1
value.reported: 4.01

###

Below: a set of entries, each annotated with reported IC50.
molecular target: ACT-7 (Enterobacter asburiae); test: biochemical
Sequence (B6V6L3 entry or part of it): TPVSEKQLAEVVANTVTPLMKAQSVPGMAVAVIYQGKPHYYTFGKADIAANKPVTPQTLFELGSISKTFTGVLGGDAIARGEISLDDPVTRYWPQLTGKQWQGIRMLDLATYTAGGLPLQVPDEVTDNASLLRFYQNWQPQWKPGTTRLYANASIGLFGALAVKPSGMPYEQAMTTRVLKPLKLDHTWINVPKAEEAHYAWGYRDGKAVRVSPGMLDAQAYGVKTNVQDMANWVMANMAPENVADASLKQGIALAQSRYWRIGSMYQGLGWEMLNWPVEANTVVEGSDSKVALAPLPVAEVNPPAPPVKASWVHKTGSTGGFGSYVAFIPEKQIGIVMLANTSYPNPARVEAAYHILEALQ
measured.quantity: IC50 (µM)

input.smiles: C[C@]1(Cn2ccnn2)[C@H](C(=O)O)N2C(=O)C[C@H]2S1(=O)=O
measured.quantity: IC50
modifier.sign: =
value.reported: 23
--
input.smiles: O=C(O)C[C@@H]1CC[C@H](NC(=O)Cc2cccs2)B(O)O1
measured.quantity: IC50
modifier.sign: =
value.reported: 3.6
--
input.smiles: CC1=C[C@@H]2CN(C(=O)N2OS(=O)(=O)O)[C@@H]1C(N)=O
measured.quantity: IC50
modifier.sign: =
value.reported: 0.004
--
input.smiles: O=C(O)[C@H]1/C(=C/CO)O[C@@H]2CC(=O)N21
measured.quantity: IC50
modifier.sign: >
value.reported: 100
--
input.smiles: O=C(NNC(=O)[C@@H]1CC[C@@H]2CN1C(=O)N2OS(=O)(=O)O)[C@@H]1CCCNC1
measured.quantity: IC50
modifier.sign: =
value.reported: 0.12
